- subject of test: T1, human GIP receptor (human, UniProt P48546 22-466)
- T1 sequence (looked up): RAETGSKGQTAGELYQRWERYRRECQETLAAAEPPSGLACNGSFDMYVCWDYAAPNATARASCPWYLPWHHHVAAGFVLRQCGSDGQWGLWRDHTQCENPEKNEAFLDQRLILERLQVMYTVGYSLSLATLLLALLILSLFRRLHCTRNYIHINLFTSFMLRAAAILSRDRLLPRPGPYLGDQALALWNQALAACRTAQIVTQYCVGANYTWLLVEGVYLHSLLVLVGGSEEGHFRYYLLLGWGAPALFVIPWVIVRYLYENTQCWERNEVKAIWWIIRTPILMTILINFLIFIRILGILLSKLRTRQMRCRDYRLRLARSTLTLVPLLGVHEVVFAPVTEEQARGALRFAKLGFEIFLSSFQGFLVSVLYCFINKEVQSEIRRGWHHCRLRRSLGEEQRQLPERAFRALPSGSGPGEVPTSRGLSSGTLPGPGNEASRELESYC
- assay comment: cell-based or functional assay
*1 amine or outer side, *2 acyl side, *3 side chain or, on linkers, in order; H or OH if unused. Where no end group is shown, it is not given here. Side-chain parts run from the residue outwards. [ ]: non-standard residue; d: D form. The star is where a group is joined. C20 diacid = O=C(O)CCCCCCCCCCCCCCCCCCC(=O)*; C18 diacid = O=C(O)CCCCCCCCCCCCCCCCC(=O)*; γGlu = O=C(O)[C@H](CCC(=O)[*:2])N[*:1]; Trx = NC[C@H]1CC[C@H](C(=O)O)CC1; Nle = CCCC[C@H](N)C(=O)O; Aib = CC(C)(N)C(=O)O
Below: a set of entries, each annotated with reported EC50, hGIP-R CRE Luc, 0.2% HSA.
Please respond with the number in nM and leave the unit unwritten.

# binder, quantitative readout
rows = [
    ("Ac-[dY]AEGTFISDYSIA[Nle]DKIHQEDFVK([γGlu-γGlu-γGlu-Trx-C20 diacid])WLLAQKG", 0.547),
]

Endpoint output: EC50, hGIP-R CRE Luc, 0.2% HSA of Ac-[dY][Aib]EGTFISDYSIA[Nle]DKIRQQDFVK([γGlu-γGlu-γGlu-C18 diacid])WLLAQKP-NH2 . Value?
0.0212

Let us now turn to Y[Aib]EGTFISDYSIA[Nle]DKIRQEDFVK([γGlu-γGlu-γGlu-C18 diacid])WLLAQKG
0.0629
